Below, each entry is listed with its recorded protein stability index.
B1: FBF1 (parent)
chain: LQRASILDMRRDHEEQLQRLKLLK

# Variants of: B1
# ASSAY: protein stability index of a GFP-peptide fusion (GPS, HEK-293T) (PSI 1-6); higher = more stable;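 note: lentivirally expressed fusions sorted by FACS into six bins by GFP to DsRed ratio, PSI derived from sequencing read proportions per bin multiplied by bin number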
# CONDITION_LABEL: c terminus: a fixed tail appended

Solved cases (4 shown):
VARIANT_STRING: Q2M
protein stability index: 3.28
//
VARIANT_STRING: L17I
protein stability index: 3.91
//
VARIANT_STRING: K24A
protein stability index: 2.19
//
VARIANT_STRING: K21T
protein stability index: 3.38

Query :: Returns the measured protein stability index for the input variant. Input: L22N
Result :: 4.4

Query :: Same read-out for L22A ?
Result :: 3.18
